# Test system: HL-1
# experiment: cardiomyocyte survival under oxidative or metabolic stress – cell-based, panel, H9c2 and HL-1, H2O2, 2-deoxyglucose, ATP luminescence, SAR follow-up (AID 651642)
# study-conditions: H9c2/HL-1 cardiomyocyte 2-deoxyglucose damage, mean of runs, with 2-deoxyglucose, mean IC50 across panel
attribute-measured: IC50 (µM)
# value in µM; strip the unit string

So what does the record say about IC50 for `COc1cc(-c2cc(C(=O)NCC(=O)Nc3ccc(C(C)=O)cc3)c3cc(C)ccc3n2)cc(OC)c1OC` ?
4.22

So what does the record say about IC50 for `COc1cc(-c2cc(C(=O)Nc3cccc(C(C)=O)c3)c3ccccc3n2)cc(OC)c1OC` ?
8.62

So what does the record say about IC50 for `CCNC(=O)c1cccc(NC(=O)c2cc(-c3cc(OC)c(OC)c(OC)c3)nc3ccccc23)c1` ?
9.33
